target.of.assay: T1, GHRH receptor (membrane receptors of human anterior pituitary cells) (human, UniProt Q02643 23-423)
T1 construct: whole, on cells; Native receptor in a membrane fraction of purchased normal human pituitaries, not intact cells; also called hGHRH receptor; human pituitary membrane homogenates
T1 sequence (looked up): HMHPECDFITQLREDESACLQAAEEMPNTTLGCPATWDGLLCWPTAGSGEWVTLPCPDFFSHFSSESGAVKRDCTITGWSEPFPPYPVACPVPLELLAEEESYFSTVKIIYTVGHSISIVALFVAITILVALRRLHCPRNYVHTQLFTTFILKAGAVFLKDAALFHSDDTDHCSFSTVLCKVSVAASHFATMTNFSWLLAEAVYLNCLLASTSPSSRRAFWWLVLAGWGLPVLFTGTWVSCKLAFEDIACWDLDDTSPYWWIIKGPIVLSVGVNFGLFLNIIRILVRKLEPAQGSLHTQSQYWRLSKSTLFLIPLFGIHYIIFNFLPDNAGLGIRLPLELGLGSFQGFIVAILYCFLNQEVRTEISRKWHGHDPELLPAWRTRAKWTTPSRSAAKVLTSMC
assay.name: competition with 125I-JV-1-42, human pituitary membranes
Non-standard residues stand in square brackets, D forms with d. No end group written: not given here. *: point of attachment. Phe(F5) = N[C@@H](Cc1c(F)c(F)c(F)c(F)c1F)C(=O)O; NMeY = CN[C@@H](Cc1ccc(O)cc1)C(=O)O; Agmatine = N=C(N)NCCCCN*; Nle = CCCC[C@H](N)C(=O)O; Orn = NCCC[C@H](N)C(=O)O; Abu = CC[C@H](N)C(=O)O; GABA = NCCCC(=O)O
measured.property: IC50 (nM)

These recorded examples may help you get a feel for the data.
binder	IC50 [nM]
[NMeY][dA]DAIFTNSYR[Orn]VL[Abu]QLSAR[Orn]LLQDI[Nle]D[Agmatine] (also called Peptide 20367) [P-20367 [N-Me-Tyr^1, D-Ala^2, Orn^12, Abu^15, Orn^21, Nle^27, Asp^28, Agm^29]hGHRH(1-29)NH2]	1.7
[NMeY][dA]DAIFTQSYR[Orn]VL[Abu]QLSAR[Orn]LLQDI[Nle]D[Agmatine] (also called Peptide 20361) [P-20361 [N-Me-Tyr^1, D-Ala^2, Gln^8, Orn^12, Abu^15, Orn^21, Nle^27, Asp^28, Agm^29]hGHRH(1-29)NH2]	0.82
[NMeY][dA]DAIFTTSYR[Orn]VL[Abu]QLSAR[Orn]LLQDI[Nle]DR-NHMe (also called MR-410; Peptide 27410) [P-27410 [N-Me-Tyr^1, D-Ala^2, Thr^8, Orn^12, Abu^15, Orn^21, Nle^27, Asp^28]hGHRH(1-29)NH-CH3]	0.83
[NMeY][dA]DAIFTQSYR[Orn]VL[Abu]QLSAR[Orn]LLQDI[Nle]DR-NHEt (also called MR-420; Peptide 28420) [P-28420 [N-Me-Tyr^1, D-Ala^2, Gln^8, Orn^12, Abu^15, Orn^21, Nle^27, Asp^28]hGHRH(1-29)NH-CH2-CH3]	0.52
[NMeY][dA]DAIFTNSYR[Orn]VL[Abu]QLSAR[Orn]LLQDI[Nle]DR-NHMe (also called MR-409; Peptide 27409) [P-27409 [N-Me-Tyr^1, D-Ala^2, Orn^12, Abu^15, Orn^21, Nle^27, Asp^28]hGHRH(1-29)NH-CH3]	1.06
[NMeY][dA]DAI[Phe(F5)]TNSYR[Orn]VL[Abu]QLSAR[Orn]LLQDI[Nle]SR[GABA]-NHMe (also called Peptide 27414) [P-27414 [N-Me-Tyr^1, D-Ala^2, Fpa5^6, Orn^12, Abu^15, Orn^21, Nle^27, Gab^30]hGHRH(1-30)NH-CH3]	1.56

(A) [NMeY][dA]DAIFTNSYR[Orn]VL[Abu]QLSAR[Orn]LLQDI[Nle]DR-NHEt (also called MR-421; Peptide 28421) [P-28421 [N-Me-Tyr^1, D-Ala^2, Orn^12, Abu^15, Orn^21, Nle^27, Asp^28]hGHRH(1-29)NH-CH2-CH3]
(B) [NMeY][dA]DAIFTQSYR[Orn]VL[Abu]QLSAR[Orn]LLQDI[Nle]DR-NHMe [P-27403 [N-Me-Tyr^1, D-Ala^2, Gln^8, Orn^12, Abu^15, Orn^21, Nle^27, Asp^28]hGHRH(1-29)NH-CH3]
Prompt line: Larger number for IC50: A , or B ? Answer by stating the label of the chosen item.
Response line: A
(A: 1.47 nM, B: 0.16 nM)
